tested on: A204; assay: cells; assay type: functional, cell-based, Homo sapiens; conditions: Homo sapiens, A204;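 also: growth inhibition of human A204 cells, read out with a cell viability assay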
Description: SANGER: Inhibition of human A204 cell growth in a cell viability assay.
ASSAY_ENDPOINT: IC50

| MOLECULE | SYSTEM_NAME | IC50 |
| --- | --- | --- |
| C[C@]1(O)C[C@@H](c2nc(-c3ccc4ccc(-c5ccccc5)nc4c3)c3c(N)nccn32)C1 [LINSITINIB] | A204 | > 2.56 µM |
| COc1cc(F)c(F)c(Nc2ccc(I)cc2F)c1NS(=O)(=O)C1(CC(O)CO)CC1 (centres undefined) | A204 | > 5 µM |
| CC(=O)O[C@@H]1[C@@H](OC(C)=O)[C@@H](O)[C@H](Oc2c(-c3ccc(O)cc3)oc3cc(O)cc(O)c3c2=O)O[C@H]1C | A204 | > 10 µM |

Let's switch to this molecule now.
Recorded IC50 for Cc1cc([C@@H](C)Nc2ccccc2C(=O)O)c2nc(N3CCOCC3)cc(=O)n2c1 [AZD-6482] , please?
> 5.12 µM

----------
test system: SW900; test: cells; format: functional, cell-based; conditions: Homo sapiens;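 also: IC50 is the concentration that inhibits SW900 cell growth, measured by a cell viability assay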
Description: SANGER: Inhibition of human SW900 cell growth in a cell viability assay.
What IC50 was measured for each of the following?

// known answers, use as guide
| MOLECULE | IC50 |
| --- | --- |
| COc1ccc(C2=N[C@@H](c3ccc(Cl)cc3)[C@@H](c3ccc(Cl)cc3)N2C(=O)N2CCNC(=O)C2)c(OC(C)C)c1 | > 8 µM |
| CC(=O)O[C@@]12CO[C@@H]1C[C@H](O)[C@@]1(C)C(=O)[C@H](O)C3=C(C)[C@@H](OC(=O)[C@H](O)[C@@H](NC(=O)OC(C)(C)C)c4ccccc4)C[C@@](O)([C@@H](OC(=O)c4ccccc4)[C@H]21)C3(C)C | 0.00755 µM |
| CN(Cc1cnc2nc(N)nc(N)c2n1)c1ccc(C(=O)N[C@@H](CCC(=O)O)C(=O)O)cc1 [METHOTREXATE] | > 0.2 µM |

Let's switch to this molecule now.
Recorded IC50 for O=C(NOCC1CC1)c1ccc(F)c(F)c1Nc1ccc(I)cc1Cl , please?
> 10 µM

----------
tested on: ES3; test: cells; type: functional, cell-based, Homo sapiens; details: Homo sapiens, ES3
Description: SANGER: Inhibition of human ES3 cell growth in a cell viability assay.
pIC50: −log10 of the molar value.
ASSAY_ENDPOINT: pIC50

| COMPOUND | SYSTEM_NAME | ASSAY_ENDPOINT | EXPERIMENTAL_VALUE |
| --- | --- | --- | --- |
| C[C@]1(O)C[C@@H](c2nc(-c3ccc4ccc(-c5ccccc5)nc4c3)c3c(N)nccn32)C1 [LINSITINIB] | ES3 | pIC50 | 5.95 |
| Nc1ccn([C@@H]2O[C@H](CO)[C@@H](O)[C@@H]2O)c(=O)n1 [CYTARABINE] | ES3 | pIC50 | 6.70 |
| CCC1=C[C@@H]2CN(C1)Cc1c([nH]c3ccccc13)[C@@](C(=O)OC)(c1cc3c(cc1OC)N(C)[C@H]1[C@@](O)(C(=O)OC)[C@H](OC(C)=O)[C@]4(CC)C=CCN5CC[C@]31[C@@H]54)C2 [VINORELBINE] | ES3 | pIC50 | 7.55 |
| COc1cc(F)c(F)c(Nc2ccc(I)cc2F)c1NS(=O)(=O)C1(CC(O)CO)CC1 (stereo unspecified) | ES3 | pIC50 | < 5.30 |
| CS(=O)(=O)CCNCc1ccc(-c2ccc3ncnc(Nc4ccc(OCc5cccc(F)c5)c(Cl)c4)c3c2)o1 [LAPATINIB] | ES3 | pIC50 | < 5.70 |
| Cn1cc(C2=C(c3ccc(Cl)cc3Cl)C(=O)NC2=O)c2ccccc21 [SB-216763] | ES3 | pIC50 | < 5.00 |
| Cn1cncc1[C@@](N)(c1ccc(Cl)cc1)c1ccc2c(c1)c(-c1cccc(Cl)c1)cc(=O)n2C [TIPIFARNIB] | ES3 | pIC50 | 4.93 |
| CN(c1ncccc1CNc1nc(Nc2ccc3c(c2)CC(=O)N3)ncc1C(F)(F)F)S(C)(=O)=O [PF-00562271] | ES3 | pIC50 | < 5.59 |
| O=C(/C=C/c1ccccc1)NC(NC(=S)Nc1cccc2cccnc12)C(Cl)(Cl)Cl (stereo unspecified) [SALUBRINAL] | ES3 | pIC50 | < 4.80 |
| CC1=C2C[C@H]3[C@@H](CC=C4C[C@@H](O)CC[C@@]43C)[C@@H]2CC[C@]12O[C@@H]1C[C@H](C)CN[C@H]1[C@H]2C [CYCLOPAMINE] | ES3 | pIC50 | < 4.80 |

Let's switch to this compound now.
Recorded pIC50 for O=C(NOCC1CC1)c1ccc(F)c(F)c1Nc1ccc(I)cc1Cl [CI-1040] , please?
< 5.00

----------
system: DV-90; assay: cells; assay type: functional, cell-based; conditions: Homo sapiens;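 also: Read-out is a viability assay, with IC50 reflecting the drop in DV-90 cell growth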
Description: SANGER: Inhibition of human DV-90 cell growth in a cell viability assay.
pIC50: −log10 of the molar value.
What pIC50 was measured for each of the following?

| SMILES_NOTATION | EXPERIMENTAL_VALUE |
| --- | --- |
| Cc1cc([C@@H](C)Nc2ccccc2C(=O)O)c2nc(N3CCOCC3)cc(=O)n2c1 | < 5.29 |
| CN(c1ncccc1CNc1nc(Nc2ccc3c(c2)CC(=O)N3)ncc1C(F)(F)F)S(C)(=O)=O | < 5.59 |
| Cc1ccc(Nc2nccc(N(C)c3ccc4c(C)n(C)nc4c3)n2)cc1S(N)(=O)=O | < 5.10 |

Let's switch to this molecule now.
Recorded pIC50 for C[C@]1(O)C[C@@H](c2nc(-c3ccc4ccc(-c5ccccc5)nc4c3)c3c(N)nccn32)C1 , please?
< 5.59

----------
system: A2780; assay: cells; format: functional, cell-based, Homo sapiens; settings: Homo sapiens, A2780
Description: SANGER: Inhibition of human A2780 cell growth in a cell viability assay.
pIC50: −log10 of the molar value.
ASSAY_ENDPOINT: pIC50

// known answers, use as guide
| COMPOUND | pIC50 |
| --- | --- |
| C=CCc1cccc(/C=N/NC(=O)CN2CCN(Cc3ccccc3)CC2)c1O | < 5.59 |
| C=CCNC1=C2C[C@@H](C)C[C@H](OC)[C@H](O)[C@@H](C)/C=C(\C)[C@H](OC(N)=O)[C@@H](OC)/C=C\C=C(/C)C(=O)NC(=CC1=O)C2=O | 7.60 |
| COc1ccc(C2=N[C@@H](c3ccc(Cl)cc3)[C@@H](c3ccc(Cl)cc3)N2C(=O)N2CCNC(=O)C2)c(OC(C)C)c1 | < 5.10 |

Look at each compound and report its pIC50.
1. CN(c1ncccc1CNc1nc(Nc2ccc3c(c2)CC(=O)N3)ncc1C(F)(F)F)S(C)(=O)=O
2. Cc1cnc(-c2cnc(NCCNc3ccc(C#N)cn3)nc2-c2ccc(Cl)cc2Cl)[nH]1

1: < 5.59; 2: < 5.59

Look at each compound and report its pIC50.
1. CN(Cc1cnc2nc(N)nc(N)c2n1)c1ccc(C(=O)N[C@@H](CCC(=O)O)C(=O)O)cc1 [METHOTREXATE]
2. O=C1N=C(NCc2cccs2)S/C1=C\c1ccc2ncccc2c1

[7.26, "< 5.30"]

----------
What pIC50 was measured for each of the following?
system: UACC-62; assay: cells; format: functional, cell-based, Homo sapiens; conditions: Homo sapiens, UACC-62;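 also: growth inhibition of human UACC-62 cells, read out by a cell viability assay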
Description: SANGER: Inhibition of human UACC-62 cell growth in a cell viability assay.
pIC50: −log10 of the molar value.

// known answers, use as guide
| COMPOUND | pIC50 |
| --- | --- |
| Cn1cc(C2=C(c3ccc(Cl)cc3Cl)C(=O)NC2=O)c2ccccc21 [SB-216763] | < 5.00 |
| CN(c1ncccc1CNc1nc(Nc2ccc3c(c2)CC(=O)N3)ncc1C(F)(F)F)S(C)(=O)=O [PF-00562271] | < 5.59 |
| CN(C)C/C=C/C(=O)Nc1cc2c(Nc3ccc(F)c(Cl)c3)ncnc2cc1O[C@H]1CCOC1 [AFATINIB] | < 6.30 |
| CC(=O)O[C@@]12CO[C@@H]1C[C@H](O)[C@@]1(C)C(=O)[C@H](O)C3=C(C)[C@@H](OC(=O)[C@H](O)[C@@H](NC(=O)OC(C)(C)C)c4ccccc4)C[C@@](O)([C@@H](OC(=O)c4ccccc4)[C@H]21)C3(C)C [DOCETAXEL] | 8.48 |

Look at each compound and report its pIC50.
1. COc1cc([C@@H]2c3cc4c(cc3[C@@H](O[C@@H]3O[C@@H]5CO[C@@H](C)O[C@H]5[C@H](O)[C@H]3O)[C@H]3COC(=O)[C@H]23)OCO4)cc(OC)c1O [ETOPOSIDE]
2. CC(=O)O[C@@H]1[C@@H](OC(C)=O)[C@@H](O)[C@H](Oc2c(-c3ccc(O)cc3)oc3cc(O)cc(O)c3c2=O)O[C@H]1C
3. COc1ccc(C2=N[C@@H](c3ccc(Cl)cc3)[C@@H](c3ccc(Cl)cc3)N2C(=O)N2CCNC(=O)C2)c(OC(C)C)c1 [NUTLIN-3]
4. O=C(c1cc(Cc2n[nH]c(=O)c3ccccc23)ccc1F)N1CCN(C(=O)C2CC2)CC1 [OLAPARIB]

[5.53, "< 5.00", "< 5.10", "< 5.30"]
